Each entry below lists one item and its recorded composite z-score value.
# Run description: COS7 lysate on small-molecule microarray, probe aHis, 635 nm (AID 1123);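 note: z-score combines 667nm fluorescence intensity with signal-to-noise per printed compound spot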
# Condition notes: COS7 cell lysate, fluorescence, higher = more signal

COc1ccc([Si](C)(C)[C@@H]2[C@@H](CC(=O)N3CCC[C@H]3CO)O[C@]3(C(=O)N(Cc4ccc(N5CCOC5=O)cc4)c4ccccc43)[C@H]2C)cc1	1.02
N#Cc1ccc(C(O)C2C=CC3C(=O)NC(=O)C3N2Nc2ccc(Cl)cc2Cl)cc1 (configuration not stated)	2.94
O=C1O[C@@H](c2ccccc2)[C@@H](c2ccccc2)N2[C@@H](c3ccccc3OCCO)[C@]3(C(=O)Nc4ccc(C#CCCO)cc43)[C@@H](C(=O)NC[C@H](O)c3ccccc3)[C@H]12	2.25

(Q) Tell me the measured composite z-score of O=C(O)[C@H](Cc1ccccc1)n1cc(C2(O)CCCCC2)nn1 , please.
(A) 1.46

(Q) Another molecule to check: CN1C(=O)C2C=CC(C(O)c3ccc(-c4ccccc4)s3)N(NC(=O)OC(C)(C)C)C2C1=O (configuration not stated)
(A) 1.65

(Q) Also CN(C)CCCNC(=O)[C@@H]1c2ccccc2C(=O)N(Cc2ccccc2C(F)(F)F)[C@H]1c1ccc(CO)cc1 , if possible.
(A) 1.35

(Q) Record: C=C(CCCC)/C(=C/C[C@H](OC(=O)c1ccncc1)c1ccccc1OCCO)c1cc(C(=O)OC)ccc1OC
(A) 1.2

====

# Tested system: Luciferin 4-monooxygenase (Photinus pyralis) (UniProt P08659)
# Sequence (P08659 whole entry, looked up): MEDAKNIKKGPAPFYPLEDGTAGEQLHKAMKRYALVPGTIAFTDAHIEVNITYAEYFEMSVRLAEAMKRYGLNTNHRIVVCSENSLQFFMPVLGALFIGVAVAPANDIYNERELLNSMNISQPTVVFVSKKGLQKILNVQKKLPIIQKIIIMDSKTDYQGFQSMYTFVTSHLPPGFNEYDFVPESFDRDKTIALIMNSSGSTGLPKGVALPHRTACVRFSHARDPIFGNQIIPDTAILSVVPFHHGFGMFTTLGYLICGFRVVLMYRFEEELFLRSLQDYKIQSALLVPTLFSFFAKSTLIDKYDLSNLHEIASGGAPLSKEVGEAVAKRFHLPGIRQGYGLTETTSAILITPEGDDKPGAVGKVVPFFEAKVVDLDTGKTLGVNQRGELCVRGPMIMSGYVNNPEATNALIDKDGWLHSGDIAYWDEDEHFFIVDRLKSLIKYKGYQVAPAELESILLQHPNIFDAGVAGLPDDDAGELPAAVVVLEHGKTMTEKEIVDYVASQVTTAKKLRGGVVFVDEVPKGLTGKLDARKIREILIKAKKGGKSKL
# Run description: inhibition of purified Photinus pyralis luciferase – biochemical, luminescence, purified enzyme, 2006 set, primary screen (AID 1141);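 note: cell-free assay with purified firefly luciferase at 100 ng per well in PBS; test concentration not given here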
# Condition notes: purified firefly luciferase, SteadyGlo luminescence, 30 min; higher = more signal, called active from +8 up or from −8 down
# maps each entry to its z-score
// response body must contain only the number

Worked cases, z-score given:
CCOC(=O)C1=CC[C@@H](c2ccc(OC)cc2)N(S(=O)(=O)c2ccc(C)cc2)[C@H]1CC	1.24
C=C(CCCC)/C(=C/C[C@H](OC(=O)c1ccncc1)c1cccc(OCCO)c1)c1cnc2ccccc2c1	-0.78

(Q) What value of z-score has been reported for the following compound? COc1ccc([Si](C)(C)[C@H]2[C@H](CCO)O[C@@]3(C(=O)N(Cc4ccc(NC(=O)[C@H](C)O)cc4)c4ccccc43)[C@@H]2C)cc1
(A) -0.234

(Q) And NC(=O)N1C(=O)C2C(C1=O)C1C=C(CCCO)C2C(c2ccc(CN3CCCC3)cc2)N1Cc1sc2ccccc2c1Cl (stereo unspecified) ?
(A) -0.286

(Q) Try this compound next: C=CCNC(=O)[C@H]1[C@@H]2C(=O)O[C@@H](c3ccccc3)[C@@H](c3ccccc3)N2[C@@H](c2ccccc2OCCO)[C@]12C(=O)N(C(=O)OCCOC)c1ccc(C#Cc3ccc(OC)cc3)cc12
(A) -1.05

(Q) Could you do the same for COCCOC(=O)N1C(=O)[C@@]2(c3cc(C#CCCO)ccc31)[C@H](c1ccccc1OCCO)N1[C@H](c3ccccc3)[C@H](c3ccccc3)OC(=O)[C@H]1[C@@H]2C(N)=O , please?
(A) 0.85

====

# Run description: plasmodial surface anion channel blockers, osmotic lysis – cell-based, P. falciparum Indochina, OD700, 18 h, primary screen (AID 1157)
# Condition notes: P. falciparum Indochina infected erythrocytes, osmotic lysis OD700, 18 h; higher = more signal, called active from +8 up or from −8 down
Calls of active or inactive are those of the source.
Recorded endpoint: z-score

Field: example entries. Status: answers known.
COCCCN1C(=O)[C@@]2(c3ccc([N+](=O)[O-])cc3)CC(=O)N(CC34CC5CC(CC(C5)C3)C4)[C@@H]2c2ccc(CO)cc21	0.0583 (inactive)
C=CCC(OC(C)=O)[C@@H]1[C@@H](N(Cc2ccc(-c3cccc(C(F)(F)F)c3)o2)C(=O)Cc2ccc(F)cc2)c2cc(OCCCO)ccc2N1C(=O)Cc1ccc2ccccc2c1 (stereo partly drawn)	-0.135 (inactive)
COc1ccc(C#Cc2ccc3c(c2)[C@]2(C(=O)N3)[C@H](C(=O)O)[C@H]3C(=O)O[C@H](c4ccccc4)[C@H](c4ccccc4)N3[C@@H]2c2ccccc2OCCO)cc1	-2.29 (inactive)
CC(C)=C1C(=O)C(c2ccccc2)=C2CN3C(=O)N(CCc4ccccc4)C(=O)[C@]3(C)[C@H]21	1.62 (inactive)
CN(C)CCCC[C@@H]1NC(=O)[C@H]2C[C@@H](C(=O)O)[C@@H](c3ccc(O)cc3)N2C1=O	-0.849 (inactive)
CC(C)=CCCC(C)=CC(O)C1C=CC2C(=O)NC(=O)C2N1Nc1ccccn1 (stereo not drawn)	-1.94 (inactive)
CC(C)OC(=O)CC(=O)CC(O)c1cccc([N+](=O)[O-])c1 (stereo not drawn)	-0.295 (inactive)

Here is another molecule to look at.
(Q) What z-score value was documented for this molecule, CCCC=C(CCC)[C@@H](NC(=O)c1ccc(C(F)(F)F)cc1)c1ccc(C(F)(F)F)cc1 ?
(A) 1.25 (inactive)
